Procedure Summary: Influencing factors stability: high temperature, high humidity, illumination, accelerated conditions (XRPD, HPLC purity)
Format: physicochemical
Test Settings: solid state, 92.5% RH (25° C.), day 35
Metric Name: remaining at 840 h (%)
Numbers only, in %.

Entry CN(CCN1CCC(OC(=O)Nc2ccccc2-c2ccccc2)CC1)C(=O)c1ccc(CN2CCC(C(N)=O)CC2)cc1 [crystal form A of revefenacin] , remaining at 840 h reported as 99.9

* * *

Procedure Summary: Influencing factors stability: high temperature, high humidity, illumination, accelerated conditions (XRPD, HPLC purity)
Type: physicochemical
Test Settings: solid state, 40° C., day 35
Metric Name: remaining at 840 h (%)
One number for each entry, in %.

Entry CN(CCN1CCC(OC(=O)Nc2ccccc2-c2ccccc2)CC1)C(=O)c1ccc(CN2CCC(C(N)=O)CC2)cc1 [crystal form A of revefenacin] , remaining at 840 h reported as 99.9

* * *

Procedure Summary: Influencing factors stability: high temperature, high humidity, illumination, accelerated conditions (XRPD, HPLC purity)
Type: physicochemical
Test Settings: solid state, Illumination at 25° C. (4500 lx), day 35
Metric Name: remaining at 840 h (%)
Numbers only, in %.

Entry CN(CCN1CCC(OC(=O)Nc2ccccc2-c2ccccc2)CC1)C(=O)c1ccc(CN2CCC(C(N)=O)CC2)cc1 [crystal form A of revefenacin] , remaining at 840 h reported as 99.9

* * *

Procedure Summary: Influencing factors stability: high temperature, high humidity, illumination, accelerated conditions (XRPD, HPLC purity)
Assay type: physicochemical
Test Settings: solid state, 40° C./75% RH, day 35
Metric Name: remaining at 840 h (%)
Numbers only, in %.

Entry CN(CCN1CCC(OC(=O)Nc2ccccc2-c2ccccc2)CC1)C(=O)c1ccc(CN2CCC(C(N)=O)CC2)cc1 [crystal form A of revefenacin] , remaining at 840 h reported as 99.9

Reference for the values: patent US20260285810A1
